Assignment: determine reported ED50 for the given compounds.
System: avoidance responding
assay protocol: conditioned avoidance (discrete trial) test
Format: in vivo, Male CD rats
experimental conditions: Rattus norvegicus, po; footnote 1 = AB50 value; read-out: Active at mg/kg (AB50 value)
Experimental: The antipsychotic activity of the compounds of the invention is assessed via the conditioned avoidance (discrete trial) test. This test has excellent clinical correlation for antipsychotic activity. The test is carried out as follows: Male CD rats (Charles River) maintained at approximately 400-450 gm body weight are used. […] Response counts are summed over all subjects at a given dose. […] This number is expressed as a percentage of the total trials. […]
Where a name gives a salt, the structure may show the parent alone.
Give bare numbers, in mg/kg.

Here is how some compounds turned out for ED50.
• O=C1C2C3C=CC(C3)C2C(=O)N1CCCCN1CCN(c2cncc(Cl)n2)CC1 (stereo not drawn) [Example 13, hydrochloride hydrate] = 39.7
• O=C1C2C3C=CC(C4C=CC43)C2C(=O)N1CCCCN1CCN(c2ncccn2)CC1 (stereo not drawn) [Example 3, dihydrochloride, sesquihydrate] = 13.4
• O=C1C2C3C=CC(C4CC34)C2C(=O)N1CCCCN1CCN(c2cnccn2)CC1 (stereo not drawn) [Example 24, dihydrochloride, hydrate] = 49.6
• O=C1C2C3C=CC(C3)C2C(=O)N1CCCCN1CCN(c2nccnc2Cl)CC1 (stereo not drawn) [Example 18, hydrate] = 40
• O=C1C2C3C=CC(C4CC34)C2C(=O)N1CCCCN1CCN(c2cncc(Cl)n2)CC1 (stereo not drawn) [Example 1, dihydrochloride, sesquihydrate] = 40

Lab note: next compound to report on.
**Query** Query (compound): O=C1C2C3C=CC(C4CCC34)C2C(=O)N1CCCCN1CCN(c2ncccn2)CC1 (stereo not drawn) [Example 16, dihydrochloride, hydrate] ; field requested: ED50
**Result** 47.4

###

test system: limbic D-2 dopamine receptor (Rattus norvegicus)
Construct: Limbic brain tissue (nucleus accumbens, septal area, olfactory tubercle) is dissected
Sequence (P61169 whole entry): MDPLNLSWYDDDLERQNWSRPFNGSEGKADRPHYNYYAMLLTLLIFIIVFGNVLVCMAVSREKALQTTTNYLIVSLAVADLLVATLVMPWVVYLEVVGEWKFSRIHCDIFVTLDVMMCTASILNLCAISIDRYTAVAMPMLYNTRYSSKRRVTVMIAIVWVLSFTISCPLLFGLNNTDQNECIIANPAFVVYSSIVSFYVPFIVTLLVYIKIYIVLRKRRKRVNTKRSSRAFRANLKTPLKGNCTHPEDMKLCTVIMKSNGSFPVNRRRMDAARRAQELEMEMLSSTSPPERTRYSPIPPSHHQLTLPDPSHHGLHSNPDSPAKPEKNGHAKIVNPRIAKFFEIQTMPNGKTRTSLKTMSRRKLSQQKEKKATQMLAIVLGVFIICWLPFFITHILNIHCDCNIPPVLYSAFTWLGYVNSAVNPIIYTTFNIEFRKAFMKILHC
assay protocol: biochemical
experimental conditions: Table 1; 0.3 nM 3H-spiroperidol; rat limbic brain tissue; read-out: Limbic D-2 Binding (KinM)
Counter-ions that a name gives are not always drawn.
Assignment: determine reported pKi for the given compounds.
One number for each entry, as −log10 of the molar value.

Here is how some compounds turned out for pKi.
* Cl.O.O=C1C2C3C=CC(C4CC34)C2C(=O)N1CCCCN1CCN(c2nccnc2Cl)CC1 (centres unmarked) [Example 19, hydrochloride, hydrate] | 7.27
* O=C1C2C3C=CC(C4CC34)C2C(=O)N1CCCCN1CCN(c2cncc(Cl)n2)CC1 (centres unmarked) [Example 1, dihydrochloride, sesquihydrate] | 6.16
* O=C1C2C3C=CC(C4CCC34)C2C(=O)N1CCCCN1CCN(c2cncc(Cl)n2)CC1 (centres unmarked) [Example 15, hydrochloride] | 6.38
* O=C1C2C3CCCCC(CC3)C2C(=O)N1CCCCN1CCN(c2cncc(Cl)n2)CC1 (centres unmarked) [Example 14, hydrochloride, hemihydrate] | 6.36
* O=C1C2C3CCC(C4CC43)C2C(=O)N1CCCCN1CCN(c2ncccn2)CC1 (centres unmarked) [Example 7, dihydrochloride, dihydrate] | 6.85

Okay, here is my list. What is pKi for each of these?
1. O=C1C2C3C=CC(C4CCC34)C2C(=O)N1CCCCN1CCN(c2ncccn2)CC1 (centres unmarked) [Example 16, dihydrochloride, hydrate]
2. O=C1C2C3C=CC(C4C=CC43)C2C(=O)N1CCCCN1CCN(c2ncccn2)CC1 (centres unmarked) [Example 3, dihydrochloride, sesquihydrate]
3. O=C1C2C3C=CC(CCCC3)C2C(=O)N1CCCCN1CCN(c2cncc(Cl)n2)CC1 (centres unmarked) [Example 8, dihydrochloride, sesquihydrate]

**Result**
[7.07, 6.46, 6.46]
